Property: half-life; scope: individual compounds
assay: Pharmacokinetics in rats, IV or PO dosing, plasma LC-MS/MS; assay type: in vivo, Sprague Dawley rats; conditions: Sprague Dawley; rat; 0.25 mg/kg; plasma
The figure you give is taken to be in h; do not add the unit.

Worked examples follow.
compound	unit	half-life
CCn1nc(-c2cccc(C3(NS(=O)(=O)NCC(F)(F)F)COC3)c2)cc1Oc1ccc(C(F)(F)F)cc1	h	2.8
CCn1nc(COc2ccc(C#N)cc2)cc1-c1cccc(C(C)(C)NS(=O)(=O)NC(F)(F)F)c1 [Example 27 from WO 2004/089911 A1, reference compound]	h	4.8
CCn1nc(COc2ccc(F)cc2)cc1-c1cccc(C(C)(C)NS(=O)(=O)NC2CCC2)c1 [Example 2 from WO 2004/089911 A1, reference compound]	h	2.3

Returns the measured half-life for the input compound. Input: "CCn1nc(Oc2ccc(C(F)(F)F)cc2)cc1-c1cccc(C(C)(C)NS(=O)(=O)NCC(F)(F)F)c1" 9

Returns the measured half-life for the input compound. Input: CCn1nc(-c2cccc(C(C)(C)NS(=O)(=O)CC(F)(F)F)c2)cc1CN1CCC(C(F)(F)F)CC1 [Example 23 from WO 2004/089911 A1, reference compound] 5.4
